- System: NCI-H226
- protocol-text: NCI tumour cell line growth inhibition, 48 h
Active and inactive are the calls of the source. Rule as the data show it: active = GI50 up to about 1.1 µM and inactive = higher.
For each of the compounds below, state its GI50.

Item C[Si](C)(C)CN1C(=O)c2ccccc2C1(O)c1ccccc1 (stereo not drawn) ; assay system NCI-H226; GI50 reported as > 100 µM (inactive)

Item NC1(c2cc3ccccc3s2)CCCCCC1 ; assay system NCI-H226; GI50 reported as 19.8 µM (inactive)

Item COC(=O)C1CC2C=CC=CC(=O)C2(C)C1 (stereo not drawn) ; assay system NCI-H226; GI50 reported as 56.4 µM (inactive)

Item Nc1nnc(N)n1N ; assay system NCI-H226; GI50 reported as > 100 µM (inactive)

Item CNC(=O)c1ccc(C(=O)NCCCCCN(O)C(=O)CCC(=O)NCCCCCN(O)C(=O)CCC(=O)NCCCCCN(O)C(C)=O)c(O)c1O ; assay system NCI-H226; GI50 reported as > 100 µM (inactive)

Item Cc1cc2c(c(C#N)c1C)NC(=O)C(CC(=O)O)C2=O (stereo not drawn) ; assay system NCI-H226; GI50 reported as > 100 µM (inactive)

Item O=c1c(Cl)nsnc1Cl ; assay system NCI-H226; GI50 reported as 22.9 µM (inactive)

Item CCOC(=O)C(C(=O)OCC)=C1N[C@H](C(=O)OCC)CS1 ; assay system NCI-H226; GI50 reported as 80.5 µM (inactive)

Item O=C1N/C(=N\N=C\c2ccccc2)C2(CCCCC2)O1 ; assay system NCI-H226; GI50 reported as 44.5 µM (inactive)

Item C=C(Br)C(C)(Br)CCC(Br)C(C)(C)Cl (stereo not drawn) ; assay system NCI-H226; GI50 reported as 31 µM (inactive)

Item CCNC(=O)c1c(O)nc2ccccc2c1O ; assay system NCI-H226; GI50 reported as > 100 µM (inactive)

Item O=C1C2=Cc3ccccc3OC2(O)Oc2cc(O)cc(O)c21 (stereo not drawn) ; assay system NCI-H226; GI50 reported as > 100 µM (inactive)

Item O=C(Cn1cc(I)c(C(=O)NCC(O)CO)n1)NCC(O)CO (stereo not drawn) ; assay system NCI-H226; GI50 reported as > 100 µM (inactive)

Item COC1OC(CBr)C(OC(=O)c2ccccc2)C(O)C1Br (stereo not drawn) ; assay system NCI-H226; GI50 reported as > 100 µM (inactive)

Item C=C1C(=O)c2cc3c(cc2C(c2cc(OC)c(OC)c(OC)c2)[C@@H]1C(=O)O)OCO3 (stereo partly drawn) ; assay system NCI-H226; GI50 reported as > 100 µM (inactive)

Item Clc1ccc(C(SCc2ccccc2)SCc2ccccc2)cc1 ; assay system NCI-H226; GI50 reported as > 10 µM (inactive)

Item CN(C(=O)Cc1ccc(Cl)c(Cl)c1)[C@@H]1CCCC[C@H]1[N+]1(C)CC=CC1 ; assay system NCI-H226; GI50 reported as > 100 µM (inactive)

Item CSC1=N/C(=C\c2ccco2)C(=O)N1CN1CCCCC1 ; assay system NCI-H226; GI50 reported as > 100 µM (inactive)

Item O=C1OC(CC(=O)c2ccc(Cl)cc2)C(Cl)=C1Cl (stereo not drawn) ; assay system NCI-H226; GI50 reported as > 100 µM (inactive)

Item c1c2c(cc(-n3nnc4c3CCCCCC4)c1-n1nnc3c1CCCCCC3)CCCCCC2 ; assay system NCI-H226; GI50 reported as 16 µM (inactive)

Item Cc1ccc([N+](=O)[O-])cc1S(=O)(=O)Nc1ccc(C2=NN(S(=O)(=O)c3cc([N+](=O)[O-])ccc3C)C(c3ccco3)C2)cc1 (stereo not drawn) ; assay system NCI-H226; GI50 reported as 38.9 µM (inactive)

Item Cc1nn(-c2ccccc2)c(C)c1/C=N/N=C1\S/C(=C\c2ccc(Cl)cc2)C(=O)N1c1ccccc1 ; assay system NCI-H226; GI50 reported as > 100 µM (inactive)

Item O=C(/C=C\c1cccc2ccccc12)c1ccc(F)cc1 ; assay system NCI-H226; GI50 reported as 35.9 µM (inactive)

Item O=C1NC(Nc2cccc(Cl)c2)=N/C1=C\c1ccc(Cl)c(Cl)c1 ; assay system NCI-H226; GI50 reported as 3.44 µM (inactive)

Item OC(c1cc(C(F)(F)F)nc2c(Cl)cc(Cl)cc12)C1CCCCN1 (stereo not drawn) ; assay system NCI-H226; GI50 reported as 16.8 µM (inactive)

Item C/C(=N\NC(=O)c1ccccc1O)c1c(O)cc(C)oc1=O ; assay system NCI-H226; GI50 reported as 34.3 µM (inactive)

Item COc1cc2c(c(OC)c1)C(C)=NC(C)C2 (stereo not drawn) ; assay system NCI-H226; GI50 reported as > 100 µM (inactive)

Item Oc1ccc(CCNCc2cc3c(cc2Br)OCO3)cc1 ; assay system NCI-H226; GI50 reported as 32.5 µM (inactive)
